B1: TPR t1 (parent)
chain: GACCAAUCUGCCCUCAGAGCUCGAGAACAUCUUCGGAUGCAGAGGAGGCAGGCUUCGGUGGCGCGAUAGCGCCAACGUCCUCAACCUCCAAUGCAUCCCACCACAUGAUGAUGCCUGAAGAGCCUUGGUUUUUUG

Variants of: B1
Assay: polymerase ribozyme fitness, log enrichment relative to wild type (log ratio); higher = more active; in vitro selection for triplet polymerase activity
Listing of recorded polymerase ribozyme fitness (log ratio) by entry.

Q: Any idea what polymerase ribozyme fitness (log ratio) was measured for GACCACUCUGCCCUCAGAGCUCGAGAACAUCUUCGGAUGCAGAGGAGGCAGGCUUCGGUGGCGCGAUAGCGCCAACGUCAUCAACCUCCAAUGCAUCCCACCACAUGAUGAUGCCUGAAGAGCCUUGGUUUUUUG ?
Ans: -1.52

Q: And for GACCAAUCUGCCCUCAGAGCUCGAGAACAUCUUCGGAUGCAGAGGAGGCAGGCUUCGGUGGUGCGAUAGCGCCAACAUCCUCAACCACCAAUGCAUCCCACCACAUGAUGUUGCCUGAAGAUCCUUGGUUUUUUG ?
Ans: -5.7

Q: Check GACCAAUCUGCCCUCAGAGCUCGAGAACAUCUUCGGAUGCAGAGGAGGCAGGCUUCGGUGGCGCGAUAGCGCCAACGUCCUCAACCUCCAAUGCAUCCCACCACAUGAUGAUGCCUCAAGAGCCUUGGUUGUUUG too.
Ans: -4.4

Q: How about this variant: GACCAAUCUGCCCUCAGAGCUCGAGAACAUCUUCGGAUGCAGAGGAGGCAGGCUUCGGUGGCGCGAUAGCGUCAACGUCCUCAACCUCAAAUGCAUCCCACCACAUGAUGAUGCCUGAAGAGCCUUGGUUUUUUG
Ans: -1.22

Q: Now the variant GACCAAUCUGACCUCAGAGCUCGAGAACAUCUUCGGAUGGAGAGGAGGCAGGCUUCGGUGGCGCGAUAGCGCCAACGUCCUCAACCUCCAAUGCAUCCCACCACAUGAUGAUGCCUGAAGAGCCUUGGAUUUUUG
Ans: -3.42
